# assay procedure: recombinant UMI read abundance after kanamycin selection (control-corrected) (log10(CPM+1)); higher = more efficient recombination; extreme values may be limits of the assay; sequences stand for … in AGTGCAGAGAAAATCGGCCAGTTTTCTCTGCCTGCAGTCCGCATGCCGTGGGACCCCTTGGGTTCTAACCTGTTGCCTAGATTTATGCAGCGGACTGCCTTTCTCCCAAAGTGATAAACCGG…AGGTTGGTTTCACT; site = the 11-nt donor;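 further: IS621 bridge recombinase in Escherichia coli cells against a fixed T5 target plasmid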
Hi all, reminder that labels come from recombinant UMI read abundance (log10), split as b0 (below 0.003), b1 (0.003 to below 0.02), b2 (0.02 or more)

INSERT INTO measurements (residues, class) VALUES
  ('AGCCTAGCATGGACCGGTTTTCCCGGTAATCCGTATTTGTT (site AGCCTAGCTTA)', 'b1'),
  ('GGCCACCCATGGACCGGTTTTCCCGGTAATCCGTATTTGAT (site GGCCACCCTAT)', 'b0'),
  ('CGATCATCATGGACCGGTTTTCCCGGTAATCCGTATTTGCC (site CGATCATCTTG)', 'b0'),
  ('TACAAACCATGGACCGGTTTTCCCGGTAATCCGTATTTGGT (site CACAAACCTAC)', 'b1'),
  ('CTGGTAACATGGACCGGTTTTCCCGGTAATCCGTATTTGCA (site CTGGCAACTTG)', 'b2'),
  ('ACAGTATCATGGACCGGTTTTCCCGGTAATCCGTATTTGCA (site AGAGGATCTTG)', 'b2'),
  ('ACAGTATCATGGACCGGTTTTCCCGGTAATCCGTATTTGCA (site ACAGTTGCTTG)', 'b1'),
  ('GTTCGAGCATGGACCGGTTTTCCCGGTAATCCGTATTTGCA (site GTTAGAGCTTG)', 'b2'),
  ('CTAGCTGCATGGACCGGTTTTCCCGGTAATCCGTATTTGTG (site TTAGCTGCTCA)', 'b2'),
  ('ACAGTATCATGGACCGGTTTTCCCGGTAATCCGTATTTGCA (site ACAGTTTCTTA)', 'b1'),
  ('TATCTGGCATGGACCGGTTTTCCCGGTAATCCGTATTTGTG (site TATATGGCTCA)', 'b1'),
  ('TTAAGGCCATGGACCGGTTTTCCCGGTAATCCGTATTTGAC (site GTAAGGCCTGT)', 'b0');
